- assayedSystem: Androgen Receptor (Homo sapiens)
- Construct: endogenous in cells; host or cells: VCaP cells
- Sequence (P10275 1-920): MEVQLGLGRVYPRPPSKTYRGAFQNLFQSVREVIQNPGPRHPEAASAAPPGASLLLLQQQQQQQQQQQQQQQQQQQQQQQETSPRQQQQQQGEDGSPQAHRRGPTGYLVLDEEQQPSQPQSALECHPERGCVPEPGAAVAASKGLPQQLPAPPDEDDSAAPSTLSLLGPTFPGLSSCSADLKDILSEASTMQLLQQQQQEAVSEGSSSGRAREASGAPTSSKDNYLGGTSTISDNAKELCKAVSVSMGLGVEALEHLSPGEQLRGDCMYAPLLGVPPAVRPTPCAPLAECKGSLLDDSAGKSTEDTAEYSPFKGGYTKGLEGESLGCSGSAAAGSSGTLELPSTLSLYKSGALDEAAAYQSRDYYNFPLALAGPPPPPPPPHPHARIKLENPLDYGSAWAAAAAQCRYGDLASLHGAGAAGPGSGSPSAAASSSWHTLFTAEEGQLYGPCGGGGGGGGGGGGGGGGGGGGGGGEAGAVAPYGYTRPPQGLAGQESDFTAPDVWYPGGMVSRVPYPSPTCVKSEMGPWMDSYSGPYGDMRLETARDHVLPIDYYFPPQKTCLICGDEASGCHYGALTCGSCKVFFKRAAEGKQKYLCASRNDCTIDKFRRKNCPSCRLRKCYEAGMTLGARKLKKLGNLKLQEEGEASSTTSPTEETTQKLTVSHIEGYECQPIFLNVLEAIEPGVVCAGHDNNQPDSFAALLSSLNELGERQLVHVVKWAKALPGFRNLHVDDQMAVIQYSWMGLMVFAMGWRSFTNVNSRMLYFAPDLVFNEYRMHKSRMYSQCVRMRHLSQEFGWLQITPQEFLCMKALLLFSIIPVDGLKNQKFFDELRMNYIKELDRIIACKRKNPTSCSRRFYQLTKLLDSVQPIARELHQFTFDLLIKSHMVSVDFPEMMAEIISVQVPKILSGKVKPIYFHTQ
- protocolDescription: Androgen Receptor ELISA assay (PathScan AR ELISA) in VCaP cells: AR degradation, Dmax and DC50
- Assay type: cell-based
- conditionLabel: VCaP cells; Table 36; read-out: VCaP DC50
- Procedure: 1. Androgen Receptor ELISA Assay. The protocols used with VCaP cells are described below. The androgen receptor ELISA assay was performed using PathScan AR ELISA (Cell Signaling Catalog #12850) according to the following assay steps: […]
observedProperty: DC50

Previously resolved entries follow.
Cc1ncsc1-c1ccc([C@H](C)NC(=O)C2C[C@@H](O)CN2C(=O)[C@@H](NC(=O)CN2CCN(CCC3(c4ccc(C(=O)N[C@H]5C(C)(C)[C@H](Oc6ccc(C#N)c(C(F)(F)F)c6)C5(C)C)cc4)COC3)CC2)C(C)(C)C)cc1 (stereo partly shown)    < 0.05 µM
CC[C@H](NC(=O)[C@@H]1C[C@@H](O)CN1C(=O)[C@@H](NC(=O)COCCN1CCN(c2ccc(C(=O)N[C@H]3C(C)(C)[C@H](Oc4ccc(C#N)c(Cl)c4)C3(C)C)cn2)CC1)C(C)(C)C)c1ccc(-c2scnc2C)cc1    < 0.05 µM
Cc1ncsc1-c1ccc(CNC(=O)[C@@H]2C[C@@H](O)CN2C(=O)[C@@H](NC(=O)CN2CCN(CCOc3ccc(C(=O)N[C@H]4C(C)(C)[C@H](Oc5ccc(C#N)c(Cl)c5)C4(C)C)cc3)CC2)C(C)(C)C)cc1    < 0.05 µM

Consider the record given below.
[Q] Give the reported DC50 for this compound. `CC(C)(C)[C@H](NC(=O)COCCN1CCN(c2ccc(C(=O)N[C@H]3C(C)(C)[C@H](Oc4ccc(C#N)c(Cl)c4)C3(C)C)cn2)CC1)C(=O)N1C[C@H](O)C[C@H]1C(=O)NCc1ccc(C2CCOCC2)cc1`
[A] > 0.501 µM
